Recorded melting point, one value per entry.

Examples from the recorded data:
COMPOUND	EXPERIMENTAL_RESULT
COc1ccc2c(c1)CCN(C(=O)OCc1ccccc1)C21CCC(C(=O)O)(C(=O)O)CC1	193 to 194 °C
CCOc1cc(C(CC(=O)O)N2Cc3cccc(NC(C)=O)c3C2=O)ccc1OC(F)F (stereo not given)	105 to 107 °C
CCOC(=O)c1cc2ccccc2n(C(C)C)c1=O	54 to 57 °C
CCC(=O)NCC1CC1c1cccc2nc(C)sc12 (stereo not given)	59 to 61 °C

// below: melting point requested for another compound
Task: Returns the measured melting point for the input compound. Input: `CC1(C)CCC(C)(C)c2cc(-c3ccc(O)cc3)ccc21`
Result: 137 to 140 °C
